- assay-system: T1, GPC3 on the surface of hepatic cancer cell lines (SK-Hep1-GPC3 transfectant, HepG2, Huh7, Hep3B, SNU398) (human, UniProt P51654 25-554)
- T1 construct: Species is not restated for the cells (hepatic cancer cell lines, or SK-Hep1 transfected with pCMV/GPC3); also called glypican 3
- experiment: FACS, SK-Hep1-GPC3 cells, 1 ug antibody; lower right panel
readout-name: Mean, FL2-H

Illustrative cases are given below, each with its answer.
clone GX118 (scFv, V domains shown, scFv library clone tested as culture supernatant) VH: QLQLQESGPGLVKPSETLSLTCTVSGGSISSSSYYWGWIRQPPGKGLEWIGSIYYSGSTYYNPSLKSRVTISVDTSKNQFSLKLSSVTAADTAVYYCARLRSFADNYVWGSYASYYFDYWGRGTLVTVSS VL: QSVVTQPPSVSAAPGQRVTISCSGSSSNIGNNFVSWHQQLPGTAPKLLIYDNNKRPSGIPDRFSGSKSGTSATLGITGLQTGDEADYYCGTWDNSLGTGVFGGGTKLTVLG: 5.95
clone GX099 (scFv, V domains shown, scFv library clone tested as culture supernatant) VH: EVQLVESGAEVKKPGASVKVSCKASGYTFTSYYMHWVRQAPGQGLEWMGIINPSGGSTSYAQKFQGRVTMTRDTSTSTVYMELSSLRSEDTAVYYCARYSSSPAKIDYWGQGTLVTVSS VL: QSVLTQPPSVSAAPGEKVIISCSGSSSNIGKYYVSWYQQLPGTAPKLLIYDNNKRPSGIPDRFSGSKSGTSATLGISGLQTGDEADYYCGTWDSSLNLVFGTGTKVTVLG: 40.1

Could you now consider this next binder?
Request: Reported Mean, FL2-H for clone GX206 (scFv, V domains shown, scFv library clone tested as culture supernatant) VH: QLQLQESGPGLVKPSETLSLTCTVSGGSISSSSYYWGWIRQPPGKGLEWIGSIYYSGSTYYNPSLKSRVTISVDTSKNQFSLKLSSVTAADTAVYYCARLGDYGGNGYYFDYWGQGTLVTVSS VL: QSVLTQPPSVSAASGQKVTVSCSGSSSNIGKNGVSWHQQLPGTAPKLLIYENNRRPSEIPDRFSGSKSGTSATLAITGLQTGDEADYYCGTWDSSLNAGVFGTGTKVTVLG : what is it?
Response: 14.9

Origin of measurements: patent US20180346592A1
